- Test system: RKO
- assay comment: Cell proliferation (cell count by microscopy), single agents and combinations
- Assay type: cell-based
- study conditions: Homo sapiens, 72 h, concentration giving 50% of cell counts relative to DMSO

smiles code	unit info	IC50
CN(C)C(=O)c1cc2cnc(Nc3ccc(N4CCNCC4)cn3)nc2n1C1CCCC1	nM	1500
Cc1nc(NC(=O)N2CCC[C@H]2C(N)=O)sc1-c1ccnc(C(C)(C)C(F)(F)F)c1	nM	3900
CC(=O)Nc1cccc(-n2c(=O)n(C3CC3)c(=O)c3c(Nc4ccc(I)cc4F)n(C)c(=O)c(C)c32)c1	nM	21
